Molecular target: T1, orthogonal hCD122 receptor (hoRb), hCD122 with H133D and Y134F (human, UniProt P14784 27-550); further: reference of the scale not given here
T1 sequence: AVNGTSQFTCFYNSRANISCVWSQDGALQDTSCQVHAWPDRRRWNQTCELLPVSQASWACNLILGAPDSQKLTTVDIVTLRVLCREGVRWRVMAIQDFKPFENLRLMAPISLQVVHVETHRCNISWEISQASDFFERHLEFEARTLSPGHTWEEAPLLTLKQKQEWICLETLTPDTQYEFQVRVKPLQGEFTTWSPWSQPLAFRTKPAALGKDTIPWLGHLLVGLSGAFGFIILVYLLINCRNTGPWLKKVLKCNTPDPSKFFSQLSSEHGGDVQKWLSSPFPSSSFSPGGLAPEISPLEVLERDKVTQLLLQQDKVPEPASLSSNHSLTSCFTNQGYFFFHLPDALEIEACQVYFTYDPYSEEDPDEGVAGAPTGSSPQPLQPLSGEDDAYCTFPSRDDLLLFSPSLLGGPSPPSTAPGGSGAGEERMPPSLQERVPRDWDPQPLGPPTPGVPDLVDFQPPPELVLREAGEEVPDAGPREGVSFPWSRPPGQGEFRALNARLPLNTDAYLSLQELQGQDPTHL
Assay: cell-based or functional assay
readout-name: Relative Proliferation Fold Change NKL 1:50 (fold)
One number for each entry, in fold.

SQVLVA (ligand) APTSSSTKKTQLQLSQLLVLLVAILNGINNYKNPKLTRMLTFKFYMPKKATELKHLQCLEEELKPLEEVLNLAQSKNFHLRPRDLISNINVIVLELKGSETTFMCEYADETATIVEFLNRWITFCQSIISTLT; 0.51

--- query ---
(Q) Consider the binder shown here: SQVLLA (ligand) APTSSSTKKTQLQLSQLLVLLLAILNGINNYKNPKLTRMLTFKFYMPKKATELKHLQCLEEELKPLEEVLNLAQSKNFHLRPRDLISNINVIVLELKGSETTFMCEYADETATIVEFLNRWITFCQSIISTLT What is its recorded Relative Proliferation Fold Change NKL 1:50?
(A) 0.59
